pIC50 by entry:
molecular target: human adenosine A2A receptor (Homo sapiens, UniProt P29274); test: cAMP assay in hA2A CHO cells, basal or with CGS 21680; format: cell-based; design: expressed in transfected cells; host or cells: CHO cells; conditions: basal cAMP, mean ± SEM, read-out: IC50 cAMP, in absence of CGS 21680
Sequence (P29274 whole entry): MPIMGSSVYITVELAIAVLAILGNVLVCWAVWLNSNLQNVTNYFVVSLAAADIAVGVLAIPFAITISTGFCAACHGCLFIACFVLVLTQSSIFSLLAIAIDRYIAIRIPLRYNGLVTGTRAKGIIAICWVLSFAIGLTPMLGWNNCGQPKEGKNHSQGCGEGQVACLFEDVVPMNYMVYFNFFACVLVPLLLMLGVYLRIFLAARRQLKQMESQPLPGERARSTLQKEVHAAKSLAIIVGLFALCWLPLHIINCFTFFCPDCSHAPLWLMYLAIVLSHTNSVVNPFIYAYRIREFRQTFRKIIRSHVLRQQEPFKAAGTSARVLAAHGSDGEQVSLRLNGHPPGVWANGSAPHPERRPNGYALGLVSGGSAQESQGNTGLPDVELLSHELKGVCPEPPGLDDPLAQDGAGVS
Please report pIC50 as the negative decimal logarithm of the molar concentration, giving only the number.

Here's what some known entries look like.
Cpd Smiles: Nc1nc(NCc2ccncc2)nc2sc(-c3ccco3)nc12
Measured Parameter: pIC50
Assay Value: 7.82
//
Cpd Smiles: Nc1nc(NCc2cccnc2)nc2sc(-c3ccco3)nc12
Measured Parameter: pIC50
Assay Value: 10.96

pIC50 reading for Nc1nc(NCCc2cccs2)nc2sc(-c3ccco3)nc12 : 11.19

###

target: UniProtKB P29274; experiment: Competition binding, [3H]-ZM 241385, hA2A CHO membranes; conditions: read-out: Receptor hA2A Ki; [3H]-ZM 241385; single affinity value; mean ± SEM
Measured Parameter: pKi
Conceptually, pKi converts a concentration in mol/L into minus its log10.

Cpd Smiles: Nc1nc(NCc2ccsc2)nc2sc(-c3ccco3)nc12
Assay Value: 9.60

Cpd Smiles: Nc1nc(NCc2cnccn2)nc2sc(-c3ccco3)nc12
Assay Value: 8.29

Cpd Smiles: Nc1nc(NCc2cccc(O)c2)nc2sc(-c3ccco3)nc12
Assay Value: 7.70

Proceeding to the next compound to report its pKi.
Field pKi (entry CCCCNc1nc(N)c2nc(-c3ccco3)sc2n1 ) reads 8.09
